What follows is a record of pIC50 for CYP1A2 (Homo sapiens, UniProt P05177).
pIC50: −log10 of the molar value.

The value of pIC50 measured for the compound "CC1(C)NC(=O)N(c2ccc(Oc3cccc(OC(F)(F)F)c3)nc2N)C1=O" turned out to be < 4.30

The compound listed as "Cc1ccc(Oc2ccc(N3C(=O)NC(C)(C)C3=O)c(N)n2)c2c1OCC21CC1" has a reported pIC50 of < 4.30

For this compound ( COc1nc(Oc2ccc(C)c3c2C2(CC2)CO3)ccc1N1C(=O)NC(C)(C)C1=O [Reference Example 2, reference compound] ), measured pIC50 is < 4.30

Cited source for all entries: patent US20260199309A1
